# assay.text: Circular dichroism melting temperature (Tm), CD signal at 222 nm versus temperature
# Type: physicochemical
# setup.conditions: among the thirteen modified GGBPs; reference 3M-GGBP
value.kind: increase of Tm over the reference protein (in words)

- Modified protein 1: 3M-GGBP (SEQ ID NO:3) with substitution N39I (protein) ADTRIGVTIYKYDDNFMSVVRKAIEQDAKAAPDVQLLMIDSQNDQSKQNDQIDVLLAKGVKALAINLVDPAAAGTVIEKARGQNVPVVFFNKEPSRKALDSYDKAYYVGTDSKESGIIQGDLIAKHWAANQGWDLNKDGQIQFVLLKGCPGHPDAEARTTYVIKELNDKGIKTEQLQLDTAMWDTAQAKDKMDAWLSGPNANKIEVVIANNDRMAMGAVEALKAHNKSSIPVFGVDASPEALALVKSGALAGTVLNDANNQAKATFDLAKNLADGKGAADGTNWKIDNKVVRVPYVGVDKDNLAEFSKK: greatest increase of Tm
- Modified protein 3: 3M-GGBP (SEQ ID NO:3) with substitutions G82E, Q83K, N84D (protein) ADTRIGVTIYKYDDNFMSVVRKAIEQDAKAAPDVQLLMNDSQNDQSKQNDQIDVLLAKGVKALAINLVDPAAAGTVIEKAREKDVPVVFFNKEPSRKALDSYDKAYYVGTDSKESGIIQGDLIAKHWAANQGWDLNKDGQIQFVLLKGCPGHPDAEARTTYVIKELNDKGIKTEQLQLDTAMWDTAQAKDKMDAWLSGPNANKIEVVIANNDRMAMGAVEALKAHNKSSIPVFGVDASPEALALVKSGALAGTVLNDANNQAKATFDLAKNLADGKGAADGTNWKIDNKVVRVPYVGVDKDNLAEFSKK: greatest increase of Tm
- Modified protein 10: 3M-GGBP (SEQ ID NO:3) with substitutions N259E, N260S (protein) ADTRIGVTIYKYDDNFMSVVRKAIEQDAKAAPDVQLLMNDSQNDQSKQNDQIDVLLAKGVKALAINLVDPAAAGTVIEKARGQNVPVVFFNKEPSRKALDSYDKAYYVGTDSKESGIIQGDLIAKHWAANQGWDLNKDGQIQFVLLKGCPGHPDAEARTTYVIKELNDKGIKTEQLQLDTAMWDTAQAKDKMDAWLSGPNANKIEVVIANNDRMAMGAVEALKAHNKSSIPVFGVDASPEALALVKSGALAGTVLNDAESQAKATFDLAKNLADGKGAADGTNWKIDNKVVRVPYVGVDKDNLAEFSKK: greatest increase of Tm
